- System: MS2 coat protein
- Test method notes: apparent KD of MS2 coat protein; designed switch direction (-1 OFF switch, 1 ON switch): -1; higher = weaker reporter binding
- Stated conditions: Eterna round: R95; input ligand: microRNA oligo, concentration not stated
Measured apparent KD of MS2 coat protein values are reported for all entries that follow.
Answer by giving the amount and then stating its unit.

Answered examples (5):
GAAAAGGUAGGAUAUACGAAAAAGAAGGGUAGAAAAAAAACACAUGAGGAUCACCCAUGUAGAAGGACCAAAAG [salish99_ex2_r3_026] (puzzle: Exclusion 2) ... 0.0241 µM
UCGUUUUUUGAGGAUAUGCGACGUUCCUUCGUCGUAGAAGGCGAUACAUGAGGAUCACCCAUGUUUAUGGGCAU [LRO-Ex6-16] (puzzle: Exclusion 6) ... 0.109 µM
UUUUCUUUUGUGAGGAUAUACUUCUUUUUCUUUUUGUAGAAGGCACAUGAGGAUCACCCAUGUUUUCUUUUCUC [JR_BME4_Sub028] (puzzle: Brourd's mod of Exclusion 4) ... 0.0137 µM
AGCUCAAAAGUGAGGAUAUCUAGGGUCAAAUGACCGGAGAAGGCACAUGAGGAUCACCCAUGUAACGCCAUGGA [Ceinveusar] (puzzle: Brourd's mod of Exclusion 4) ... 0.0125 µM
GAGAAAUUAUAGGAUAUCGUAAGGAUAAUUUAACGAGAAGGAUGAACAUGAGGAUCACCCAUGUGGUAUCAUGG [JL-ex6-3.12] (puzzle: Exclusion 6) ... 0.184 µM

[Q] Which apparent KD of MS2 coat protein value belongs to AUCAUGUAAGGAUAUCUUACAUGUGACUUCGGUCACUGUCAAGAGAAGGUACAUGAGGAUCACCCAUGUAUGAC [Ex4-3: 51] (puzzle: Exclusion 4) ?
[A] 0.0168 µM

====

- Test system: MS2 coat protein
- Test method notes: apparent KD of MS2 coat protein; higher = weaker reporter binding
- Stated conditions: Eterna round: R101; input ligand: none
Kind request: treat 0.03 µM as inclusive, so apparent KD of MS2 coat protein at 0.03 µM or higher is Fulfilled, anything lower is Not fulfilled.

Examples from the recorded data:
CUGGUUGUCGUAGGAUAUGUAGGAUAUUCCUACAUGAGGAUCACCCAUGUUCGCAUGGAAGAAGGACAGAAGGACGAUGACCAG [salish99_SSNG2_013 #endbits investigation] (puzzle (switch architecture): Same State NG 2) ... Fulfilled
CGCUAUUACAUGAGGAUCACCCAUGUAUAUAUGGGAUUUUCGUAGGAUAUGCAGAAGAUUAAAGUGCAGAAGGACGGAAUAGCG [JR #DistanceClose #Static #NP SSNG3 Sub066] (puzzle (switch architecture): Same State NG 3) ... Fulfilled
GCAGCUAAUGCAGGAUAUCAGCACGUGUAGUGCUGAGAAGGGCACAUGAGGAUCACCCAUGUGAUCAAUUAAUAUUAAUGCUGC [jl-eng1-3.00 #ENG1/11-B3_NECK] (puzzle (switch architecture): Exclusion NG 1) ... Not fulfilled

[Q] In plain terms: is recorded apparent KD of MS2 coat protein at least 0.03 µM for AAUAAUCUUUAAGGAUAUGACUCCGAAACGGAGUCAGAAGGUGAGGAUCACCCACCUAGCUCAGGGUCGAAAGACCCUGAGCAA [#SharedSequence - ExNG1-9] (puzzle (switch architecture): Exclusion NG 1) ?
[A] Not fulfilled

[Q] Follow-up item: AAGUACAAGCAGAAGGCACAUGAGGAUCACCCAUGUCGGGCGUCCUGUAAGUGAGGAUAUGCUAAGUGACGGCCGCCUUGGCGG [Adienare] (puzzle (switch architecture): Inverted Small Loop Exclusion NG 1)
[A] Fulfilled

[Q] Follow-up item: CUUACUUUGUAGAAGGGUGACAUGAGGAUCACCCAUGUGCGUCGCCUGGAAGACCAGGGUACGCCACAGGAUAUACAAAGUAAG [Gesoesla] (puzzle (switch architecture): Inverted Same State NG 2)
[A] Fulfilled

[Q] Follow-up item: CACCUAAAUCCUAGAGGAUCACCCUAGGAUAUCACCGUCGAGGUGCCAUAAUGGCACCUCGACGGUGAGAAGGAGGAAAAAUAA [#SharedSequence - SLExNG3: 10] (puzzle (switch architecture): Small Loop Exclusion NG 3)
[A] Not fulfilled
